Where do these numbers come from? They come from patent US11478474B2.

- Tested on: B cell activation in rat whole blood
- Assay Overview: Determination of B cell activity in whole blood of rats (anti-rat IgD induced B cell activation, flow cytometry)
- Assay type: cell-based
- Measurement Context: anti-rat immunoglobulin D 10 μg/mL, 18 hours, inhibition of B cell activation
Assay Metric: pIC50
In plain terms, pIC50 is the concentration in mol/L turned into minus its base-10 logarithm.

Examples with answers:
C[C@H]1CN(C2COC2)CCN1c1ccc(Nc2cc(-c3ccnc(-n4ccn5c6c(cc5c4=O)CCC6)c3CO)cn(C)c2=O)nc1 : 7.28
C[C@H]1CN(C2COC2)CCN1c1ccc(Nc2cc(-c3ccnc(-n4ccn5c(c(F)c6cc(F)ccc65)c4=O)c3CO)cn(C)c2=O)nc1 : 7.47
CN1CCN(C(=O)c2ccc(Nc3cc(-c4ccnc(-n5ccn6c7c(cc6c5=O)CC(C)(C)C7)c4CO)cn(C)c3=O)nc2)CC1 : 7.59
CC1CCc2cc3c(=O)n(-c4nccc(-c5cc(Nc6ccc(N7CCN(C8COC8)C[C@@H]7C)cn6)c(=O)n(C)c5)c4CO)ccn3c2C1 (mixture of isomers) : 7.39
C[C@H]1CN(C2COC2)CCN1c1ccc(Nc2cc(-c3ccnc(-n4ccn5c6c(cc5c4=O)CC(C)(C)C6)c3CO)nn(C)c2=O)nc1 : 7.47

// field: pIC50; key: "C[C@H]1CN(C2COC2)CCN1c1ccc(Nc2cc(-c3ccnc(-n4ccn5c6c(cc5c4=O)CC(C)(C)C6)c3CO)cn3ncnc23)nc1" ; value = 7.62

Documented pIC50 of "C[C@H]1CN(C2COC2)CCN1c1ccc(Nc2cc(-c3ccnc(-n4ccn5c6c(cc5c4=O)CC(C)(C)C6)c3CO)n[nH]c2=O)nc1" : 8.00

Entry "CCn1cc(Nc2cc(-c3ccnc(-n4ccn5c6c(cc5c4=O)CC(C)(C)C6)c3CO)nn(C)c2=O)nn1" , pIC50 reported as 7.54

For "CC1(C)Cc2cc3c(=O)n(-c4nccc(-c5cc(Nc6cc7n(n6)CCN(C6COC6)C7)c6ncnn6c5)c4CO)ccn3c2C1" the compound record lists pIC50 as 8.30

The measured pIC50 associated with "C[C@H]1CN(C2COC2)CCN1c1ccc(Nc2cc(-c3ccnc(-n4ccn5c6c(cc5c4=O)CC(C)(C)C6)c3CO)cn(C)c2=O)nc1" reads 8.52

Summary for this compound, "C[C@@H]1CN(c2ccc(Nc3cc(-c4ccnc(-n5ccn6c7c(cc6c5=O)CC(C)(C)C7)c4CO)nn(C)c3=O)nc2)[C@@H](C)CN1C1COC1" : pIC50 is 8.70

pIC50 recorded for this compound, "C[C@H]1CN(C)CCN1c1ccc(Nc2cc(-c3ccnc(-n4ccn5c6c(cc5c4=O)CC(C)(C)C6)c3CO)cn(C)c2=O)nc1" , is 7.72
